# System: Glycine max (GLXMA)
# measurement_protocol: Post-emergence crop plant compatibility, greenhouse pot test
# Type: in vivo
# test_conditions: 5 g/ha
Some compounds, each annotated with its measured Post-emergence action against GLXMA in %.

| compound | Post-emergence action against GLXMA in % (%) |
| --- | --- |
| CC(Oc1ccccc1Sc1cc(-n2c(=O)cc(C(F)(F)F)n(C)c2=O)c(F)cc1Cl)C(=O)OCC1CCOC1 (mixture of isomers) [I.2-72] | 10 |
| COCCOC(=O)COc1ccccc1Sc1cc(-n2c(=O)cc(C(F)(F)F)n(C)c2=O)c(F)cc1Cl [I.1-1] | 20 |
| Cn1c(C(F)(F)F)cc(=O)n(-c2cc(Oc3ccccc3OCC(=O)OCC#N)c([N+](=O)[O-])cc2F)c1=O [I.6-176] | 20 |
| CCOCCOC(=O)C(C)Oc1ccccc1Sc1cc(-n2c(=O)cc(C(F)(F)F)n(C)c2=O)c(F)cc1Cl (racemic) [I.2-2] | 0 |
| CC(Oc1ccccc1Sc1cc(-n2c(=O)cc(C(F)(F)F)n(C)c2=O)c(F)cc1Cl)C(=O)OCCO (racemic) [I.2-58] | 10 |
| COCCOC(=O)C(C)Oc1ccccc1Sc1cc(-n2c(=O)cc(C(F)(F)F)n(C)c2=O)c(F)cc1Cl (racemic) [I.2-1] | 10 |
| Cn1c(C(F)(F)F)cc(=O)n(-c2cc(Sc3ccccc3OCC(=O)OCC3CCOC3)c(Cl)cc2F)c1=O (racemic) [I.1-72] | 20 |
| COCCOC(=O)COc1ccccc1Oc1cc(-n2c(=O)cc(C(F)(F)F)n(C)c2=O)c(F)cc1Cl [I.7-1] | 10 |
| COCCOCCOC(=O)C(C)Oc1ccccc1Sc1cc(-n2c(=O)cc(C(F)(F)F)n(C)c2=O)c(F)cc1Cl (racemic) [I.2-23] | 10 |
